Where do the numbers come from? From ChEMBL document CHEMBL1141165.

- assayNotes: Clearance is determined in dog after intravenous administration at 1 mg/kg
- Format: ADME, organism-based, Canis lupus familiaris
- Parameters: dose 1 mg/kg, route intravenous
- assayContext: in vivo
valueKind: clearance (mL/min/kg)

CCN1c2ncc(CCOc3ccc(C(=O)O)cc3C)cc2C(=O)N(C)c2cccnc21 | 10

---

- measurementTarget: Human immunodeficiency virus type 1 reverse transcriptase (Human immunodeficiency virus 1, UniProt Q72547, K103N/Y181C)
- assayNotes: Inhibitory activity of compound dissolved in DMSO was determined against HIV-1 (K103N/Y181C) mutant reverse transcriptase (1-2 nM) by using [3H]-dGTP (71 nM) as substrate, 50 mM Tris/HCl buffer, pH 7.8, incubated for 1 hr at 37 degrees C
pIC50: −log10 of the molar value.
valueKind: pIC50

CCN1c2ncc(CCOc3ccc(C(=O)O)cc3C)cc2C(=O)N(C)c2ccc(F)nc21 | 6.82
CCN1c2ncc(CCOc3ccc(CCC(=O)O)cc3C)cc2C(=O)N(C)c2cccnc21 | 6.70
CCN1c2ncc(CCOc3ccc(C(=O)O)cc3C)cc2C(=O)N(C)c2cccnc21 | 6.66
CCN1c2ncc(CCOc3ccc(C(=O)O)cc3C)cc2C(=O)N(C)c2ccc(Cl)nc21 | 7.19
CCN1c2ncc(CCOc3ccc(C(=O)O)cc3Br)cc2C(=O)N(C)c2cccnc21 | 6.52
CCN1c2ncc(CCOc3ccc(C(=O)O)c4ccccc34)cc2C(=O)N(C)c2cccnc21 | 6.71
CCN1c2ncc(CCOc3cccc4c(C(=O)O)cccc34)cc2C(=O)N(C)c2cccnc21 | 6.26
CCN1c2ncc(CCOc3ccc4cc(C(=O)O)ccc4c3)cc2C(=O)N(C)c2cccnc21 | 5.96
CCN1c2ncc(CCOc3ccc(C(=O)O)cc3C)cc2C(=O)N(C)c2ccc(C)nc21 | 6.55

---

Listing of entries alongside the reported pIC50.
- measurementTarget: Human immunodeficiency virus type 1 reverse transcriptase (Human immunodeficiency virus 1, UniProt Q72547, K103N/Y181C)
- assayNotes: Inhibitory activity of compound dissolved in DMSO was determined against HIV-1 (K103N/Y181C) mutant reverse transcriptase (1-2 nM) by using [3H]-dGTP (71 nM) as substrate, 50 mM Tris/HCl buffer, pH 7.8, incubated for 1 hr at 37 degrees C
pIC50: −log10 of the molar value.
valueKind: pIC50

CCN1c2ncc(CCOc3ccc(CC(=O)O)cc3C)cc2C(=O)N(C)c2cccnc21 | 6.43
CCN1c2ncc(CCOc3ccc(C(=O)O)cc3)cc2C(=O)N(C)c2cccnc21 | 5.35
CCN1c2ncc(CCOc3ccc4c(C(=O)O)cccc4c3)cc2C(=O)N(C)c2cccnc21 | 5.40
CCN1c2ncc(CCOc3ccc(C(=O)O)cc3C)cc2C(=O)N(C)c2ccc(OC)nc21 | 6.52
CCc1cc(C(=O)O)ccc1OCCc1cnc2c(c1)C(=O)N(C)c1cccnc1N2CC | 6.37

---

- measurementTarget: Cytochrome P450 2C19 (Homo sapiens, UniProt P33261)
- Sequence (P33261 whole entry): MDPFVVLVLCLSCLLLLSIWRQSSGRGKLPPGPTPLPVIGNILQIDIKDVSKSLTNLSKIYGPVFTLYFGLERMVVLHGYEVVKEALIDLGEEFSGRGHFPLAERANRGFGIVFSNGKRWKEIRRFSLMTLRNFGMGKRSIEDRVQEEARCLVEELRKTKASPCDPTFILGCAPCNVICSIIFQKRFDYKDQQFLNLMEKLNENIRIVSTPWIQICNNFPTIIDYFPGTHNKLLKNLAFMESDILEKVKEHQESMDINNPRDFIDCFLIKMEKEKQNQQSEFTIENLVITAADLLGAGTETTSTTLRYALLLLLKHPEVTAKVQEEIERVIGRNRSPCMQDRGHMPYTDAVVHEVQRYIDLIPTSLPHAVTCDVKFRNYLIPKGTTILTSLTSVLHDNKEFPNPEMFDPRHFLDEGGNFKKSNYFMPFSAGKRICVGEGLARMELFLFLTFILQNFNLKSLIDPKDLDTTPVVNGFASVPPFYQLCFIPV
valueKind: IC50

CCN1c2ncc(CCOc3ccc(C(=O)O)cc3C)cc2C(=O)N(C)c2cccnc21 | 2000 nM

---

Listing of entries alongside the reported IC50.
- measurementTarget: Human immunodeficiency virus type 1 reverse transcriptase (Human immunodeficiency virus 1, UniProt Q72547)
valueKind: IC50 (nM)

CCN1c2ncc(CCOc3ccc4c(C(=O)O)cccc4c3)cc2C(=O)N(C)c2cccnc21 | 63
CCN1c2ncc(CCOc3ccc(C(=O)O)cc3C)cc2C(=O)N(C)c2ccc(C)nc21 | 19
CCN1c2ncc(CCOc3ccc(C(=O)O)cc3)cc2C(=O)N(C)c2cccnc21 | 95
CCN1c2ncc(CCOc3ccc(C(=O)O)c4ccccc34)cc2C(=O)N(C)c2cccnc21 | 27
CCc1cc(C(=O)O)ccc1OCCc1cnc2c(c1)C(=O)N(C)c1cccnc1N2CC | 19
CCN1c2ncc(CCOc3ccc(C(=O)O)cc3C)cc2C(=O)N(C)c2ccc(Cl)nc21 | 10
CCN1c2ncc(CCOc3ccc(CCC(=O)O)cc3C)cc2C(=O)N(C)c2cccnc21 | 22
CCN1c2ncc(CCOc3ccc(C(=O)O)cc3Br)cc2C(=O)N(C)c2cccnc21 | 18
CCN1c2ncc(CCOc3ccc4cc(C(=O)O)ccc4c3)cc2C(=O)N(C)c2cccnc21 | 14
CCN1c2ncc(CCOc3cccc4c(C(=O)O)cccc34)cc2C(=O)N(C)c2cccnc21 | 60
CCN1c2ncc(CCOc3ccc(CC(=O)O)cc3C)cc2C(=O)N(C)c2cccnc21 | 23
CCN1c2ncc(CCOc3ccc(C(=O)O)cc3C)cc2C(=O)N(C)c2ccc(F)nc21 | 15
CCN1c2ncc(CCOc3ccc(C(=O)O)cc3C)cc2C(=O)N(C)c2ccc(OC)nc21 | 15
CCN1c2ncc(CCOc3ccc(C(=O)O)cc3C)cc2C(=O)N(C)c2cccnc21 | 17
